targetOrSystem: DNA topoisomerase 2-alpha (Homo sapiens)
assayOverview: Inhibition of human DNA topoisomerase 2 alpha at 100 uM using supercoiled pBR322 DNA as substrate incubated for 30 mins by EtBr staining based agarose gel electrophoresis method relative to control
readoutName: inhibition (%)

Worked cases, inhibition given:
Oc1ccc(-c2c3c(nc4c2Cc2cccc(O)c2-4)-c2c(O)cccc2C3)cc1 43.6
Oc1ccc2c(c1)-c1nc3c(c(-c4ccccc4O)c1C2)Cc1ccc(O)cc1-3 90.3

A: Oc1cccc(-c2c3c(nc4c2Cc2c(O)cccc2-4)-c2cccc(O)c2C3)c1
B: Oc1ccc(-c2c3c(nc4c2Cc2c(O)cccc2-4)-c2cccc(O)c2C3)cc1
[Q] Quick one: lower inhibition, A or B ? Which one? Tell me its label.
[A] B

P: Oc1cccc2c1Cc1c-2nc2c(c1-c1ccco1)Cc1c(O)cccc1-2
Q: Oc1ccc(-c2c3c(nc4c2Cc2ccc(C(F)(F)F)cc2-4)-c2cc(C(F)(F)F)ccc2C3)cc1
[Q] Sorting by inhibition in descending order, would P or Q appear first? Which one? Tell me its label.
[A] P

1: Oc1cccc2c1Cc1c-2nc2c(c1-c1ccccc1)Cc1c(O)cccc1-2
2: c1ccc(-c2c3c(nc4c2Cc2ccccc2-4)-c2ccccc2C3)cc1
[Q] Quick one: lower inhibition, 1 or 2 ? Which one? Tell me its label.
[A] 2
(2: 2.6%, 1: 100%)

I: Oc1ccc(-c2c3c(nc4c2Cc2cc(O)ccc2-4)-c2ccc(O)cc2C3)cc1
II: Oc1ccc2c(c1)-c1nc3c(c(-c4ccc(C(F)(F)F)cc4)c1C2)Cc1ccc(O)cc1-3
III: Oc1cccc(-c2c3c(nc4c2Cc2ccc(O)cc2-4)-c2cc(O)ccc2C3)c1
IV: Oc1ccc(-c2c3c(nc4c2Cc2c(F)cccc2-4)-c2cccc(F)c2C3)cc1
V: Oc1cccc2c1-c1nc3c(c(-c4ccsc4)c1C2)Cc1cccc(O)c1-3
[Q] List from greatest to least inhibition. Lab note: final answer is the ordered label list.
[A] I, IV, III, V, II

---

Test system: HeLa
assayOverview: Antiproliferative activity against human HeLa cells incubated for 72 hrs by microplate reader analysis
Type: functional, cell-based
readoutName: IC50 (nM)

a: Oc1ccc2c(c1)-c1nc3c(c(-c4ccccc4O)c1C2)Cc1ccc(O)cc1-3
b: Oc1cccc(-c2c3c(nc4c2Cc2cccc(O)c2-4)-c2c(O)cccc2C3)c1
c: Oc1ccc(-c2c3c(nc4c2Cc2cccc(O)c2-4)-c2c(O)cccc2C3)cc1
d: Oc1ccccc1-c1c2c(nc3c1Cc1cccc(O)c1-3)-c1c(O)cccc1C2
[Q] Task for the reader: place the compounds above in descending order according to recorded IC50. Lab note: final answer is the ordered label list.
[A] a, c, d, b
(a: 5390 nM, c: 2960 nM, d: 1560 nM, b: 870 nM)

---

Test system: HCT-15
assayOverview: Antiproliferative activity against human HCT-15 cells incubated for 72 hrs by microplate reader analysis
Assay type: functional, cell-based
conditionsUsed: HCT-15, 72 h
readoutName: IC50 (µM)

Worked cases, IC50 given:
Oc1cccc(-c2c3c(nc4c2Cc2cccc(O)c2-4)-c2c(O)cccc2C3)c1 0.96
Oc1ccc2c(c1)Cc1c-2nc2c(c1-c1ccccc1O)Cc1cc(O)ccc1-2 46.1
Oc1ccc(-c2c3c(nc4c2Cc2ccc(O)cc2-4)-c2cc(O)ccc2C3)cc1 27.8
Oc1ccccc1-c1c2c(nc3c1Cc1c(O)cccc1-3)-c1cccc(O)c1C2 8.69
Oc1ccc(-c2c3c(nc4c2Cc2cccc(O)c2-4)-c2c(O)cccc2C3)cc1 0.95

A: Oc1ccc(-c2c3c(nc4c2Cc2c(O)cccc2-4)-c2cccc(O)c2C3)cc1
B: Oc1cccc2c1Cc1c-2nc2c(c1-c1ccco1)Cc1c(O)cccc1-2
[Q] Quick one: lower IC50, A or B ? Which one? Tell me its label.
[A] B
(B: 1.71 µM, A: 4.89 µM)

---

System: T47D
assayOverview: Antiproliferative activity against human T47D cells incubated for 72 hrs by microplate reader analysis
Type: functional, cell-based
readoutName: IC50 (µM)

Oc1ccc(-c2c3c(nc4c2Cc2cc(O)ccc2-4)-c2ccc(O)cc2C3)cc1 6.38
Oc1ccc2c(c1)-c1nc3c(c(-c4cccs4)c1C2)Cc1ccc(O)cc1-3 0.17
Oc1ccc(-c2c3c(nc4c2Cc2cccc(O)c2-4)-c2c(O)cccc2C3)cc1 4.33
Oc1ccc(-c2c3c(nc4c2Cc2c(O)cccc2-4)-c2cccc(O)c2C3)cc1 3.34
Oc1ccc2c(c1)-c1nc3c(c(-c4ccccc4O)c1C2)Cc1ccc(O)cc1-3 8.86
Oc1cccc(-c2c3c(nc4c2Cc2cccc(O)c2-4)-c2c(O)cccc2C3)c1 6.84
COc1cccc2c1C(=O)c1c(O)c3c(c(O)c1C2=O)C[C@@](O)(C(=O)CO)C[C@@H]3O[C@H]1C[C@H](N)[C@H](O)[C@H](C)O1 2.53
Oc1cccc2c1Cc1c-2nc2c(c1-c1ccco1)Cc1c(O)cccc1-2 4.16
Oc1ccccc1-c1c2c(nc3c1Cc1c(O)cccc1-3)-c1cccc(O)c1C2 5.3

1: Oc1ccccc1-c1c2c(nc3c1Cc1cccc(O)c1-3)-c1c(O)cccc1C2
2: Oc1cccc2c1-c1nc3c(c(-c4ccccc4OC(F)(F)F)c1C2)Cc1cccc(O)c1-3
3: Oc1ccc2c(c1)-c1nc3c(c(-c4ccc(C(F)(F)F)cc4)c1C2)Cc1ccc(O)cc1-3
[Q] List from greatest to least IC50. Lab note: final answer is the ordered label list.
[A] 3, 1, 2

---

Tested on: HCT-15
assayOverview: Antiproliferative activity against human HCT-15 cells incubated for 72 hrs by microplate reader analysis
Format: functional, cell-based
conditionsUsed: HCT-15, 72 h
pIC50: −log10 of the molar value.
readoutName: pIC50

Worked cases, pIC50 given:
Oc1ccc2c(c1)Cc1c-2nc2c(c1-c1cccc(F)c1)Cc1cc(O)ccc1-2 < 4.30
Oc1ccccc1-c1c2c(nc3c1Cc1cccc(O)c1-3)-c1c(O)cccc1C2 5.32
Oc1ccc(-c2c3c(nc4c2Cc2ccc(C(F)(F)F)cc2-4)-c2cc(C(F)(F)F)ccc2C3)cc1 < 4.30
Oc1cccc(-c2c3c(nc4c2Cc2ccc(O)cc2-4)-c2cc(O)ccc2C3)c1 < 4.30

// switching to the query molecule
[Q] Recall the reported pIC50 of Oc1cccc2c1-c1nc3c(c(-c4ccsc4)c1C2)Cc1cccc(O)c1-3 on HCT-15 and write it down.
[A] < 4.30

---

targetOrSystem: UniProt:P11388
Sequence (P11388 whole entry): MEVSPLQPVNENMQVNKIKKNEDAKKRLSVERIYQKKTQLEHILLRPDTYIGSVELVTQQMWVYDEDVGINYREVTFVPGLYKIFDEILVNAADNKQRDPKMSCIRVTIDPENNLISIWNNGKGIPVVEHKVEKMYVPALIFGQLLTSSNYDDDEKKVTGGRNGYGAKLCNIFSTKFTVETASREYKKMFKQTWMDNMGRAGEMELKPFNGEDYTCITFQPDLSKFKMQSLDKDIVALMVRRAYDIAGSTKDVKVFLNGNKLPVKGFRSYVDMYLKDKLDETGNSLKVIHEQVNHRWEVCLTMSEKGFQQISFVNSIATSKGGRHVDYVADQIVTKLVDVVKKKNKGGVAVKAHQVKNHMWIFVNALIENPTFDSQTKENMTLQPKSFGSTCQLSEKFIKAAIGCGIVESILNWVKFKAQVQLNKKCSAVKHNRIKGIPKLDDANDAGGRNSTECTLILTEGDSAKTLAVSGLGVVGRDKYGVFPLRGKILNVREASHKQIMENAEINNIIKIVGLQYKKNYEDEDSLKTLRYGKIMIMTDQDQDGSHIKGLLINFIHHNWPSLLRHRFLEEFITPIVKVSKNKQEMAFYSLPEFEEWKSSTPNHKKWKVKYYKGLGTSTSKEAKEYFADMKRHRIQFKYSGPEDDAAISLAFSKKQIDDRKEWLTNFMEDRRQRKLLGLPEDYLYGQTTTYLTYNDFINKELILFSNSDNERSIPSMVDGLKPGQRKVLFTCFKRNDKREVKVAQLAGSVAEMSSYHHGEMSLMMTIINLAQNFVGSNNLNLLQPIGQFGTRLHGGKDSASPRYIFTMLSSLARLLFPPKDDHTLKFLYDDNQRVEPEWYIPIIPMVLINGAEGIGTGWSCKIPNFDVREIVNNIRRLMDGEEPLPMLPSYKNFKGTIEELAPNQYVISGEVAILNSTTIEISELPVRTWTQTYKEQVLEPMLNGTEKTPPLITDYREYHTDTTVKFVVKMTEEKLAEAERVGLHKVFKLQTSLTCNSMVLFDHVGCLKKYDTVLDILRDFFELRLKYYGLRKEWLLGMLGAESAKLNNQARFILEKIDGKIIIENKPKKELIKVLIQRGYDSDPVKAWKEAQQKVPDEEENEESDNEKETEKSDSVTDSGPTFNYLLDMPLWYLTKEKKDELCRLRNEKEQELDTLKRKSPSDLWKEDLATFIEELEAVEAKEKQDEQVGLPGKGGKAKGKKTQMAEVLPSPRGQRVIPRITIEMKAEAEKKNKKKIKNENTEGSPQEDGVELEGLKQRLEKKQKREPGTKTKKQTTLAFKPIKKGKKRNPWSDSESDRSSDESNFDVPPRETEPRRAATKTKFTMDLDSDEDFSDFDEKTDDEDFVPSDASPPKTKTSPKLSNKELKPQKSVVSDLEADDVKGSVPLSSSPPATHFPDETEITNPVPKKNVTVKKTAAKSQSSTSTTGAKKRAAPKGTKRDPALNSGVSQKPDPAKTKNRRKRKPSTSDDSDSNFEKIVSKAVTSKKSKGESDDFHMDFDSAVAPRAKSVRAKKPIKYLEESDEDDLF
assayOverview: Inhibition of human DNA topoisomerase 2 alpha at 100 uM using supercoiled pBR322 DNA as substrate incubated for 30 mins by EtBr staining based agarose gel electrophoresis method relative to control
readoutName: inhibition (%)

Worked cases, inhibition given:
Oc1ccc2c(c1)Cc1c-2nc2c(c1-c1cccc(F)c1)Cc1cc(O)ccc1-2 96.5
Oc1ccc(-c2c3c(nc4c2Cc2ccc(O)cc2-4)-c2cc(O)ccc2C3)cc1 84.2
Oc1cccc2c1-c1nc3c(c(-c4ccccc4OC(F)(F)F)c1C2)Cc1cccc(O)c1-3 84.8

P: Oc1ccc2c(c1)Cc1c-2nc2c(c1-c1cccc(Cl)c1)Cc1cc(O)ccc1-2
Q: Oc1cccc(-c2c3c(nc4c2Cc2cc(O)ccc2-4)-c2ccc(O)cc2C3)c1
[Q] Sorting by inhibition in descending order, would P or Q appear first? Which one? Tell me its label.
[A] P
(P: 91.4%, Q: 56.8%)

---

The reader will find reported IC50 values listed item by item below.
System: HCT-15
assayOverview: Antiproliferative activity against human HCT-15 cells incubated for 72 hrs by microplate reader analysis
Type: functional, cell-based
conditionsUsed: HCT-15, 72 h

Worked cases, IC50 given:
Oc1ccc2c(c1)Cc1c-2nc2c(c1-c1cccc(Cl)c1)Cc1cc(O)ccc1-2 > 50 µM
Oc1cccc(-c2c3c(nc4c2Cc2c(O)cccc2-4)-c2cccc(O)c2C3)c1 > 50 µM

// switching to the query compound
[Q] Recall the reported IC50 of Oc1ccc(-c2c3c(nc4c2Cc2c(F)cccc2-4)-c2cccc(F)c2C3)cc1 on HCT-15 and write it down.
[A] > 50 µM

---

Tested on: HCT-15
assayOverview: Antiproliferative activity against human HCT-15 cells incubated for 72 hrs by microplate reader analysis
Format: functional, cell-based
conditionsUsed: HCT-15, 72 h
pIC50: −log10 of the molar value.
readoutName: pIC50

1: Oc1cccc2c1Cc1c-2nc2c(c1-c1ccccc1)Cc1c(O)cccc1-2
2: Oc1ccc2c(c1)-c1nc3c(c(-c4ccccc4O)c1C2)Cc1ccc(O)cc1-3
[Q] Sorting by pIC50 in descending order, would 1 or 2 appear first? Which one? Tell me its label.
[A] 1
(1: 5.82, 2: 5.41)
